B1: glmS ribozyme (parent)
chain: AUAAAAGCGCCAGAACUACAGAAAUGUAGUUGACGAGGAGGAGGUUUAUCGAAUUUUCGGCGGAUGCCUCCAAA

Variants of: B1
Assay: kcat; higher = faster cleavage; RNA array
Details: with glucosamine-6-phosphate
Variants at the floor of the assay were thinned out.
Assign a class from recorded kcat; defined classes: zone 1 = under 0.0001 s⁻¹, zone 2 = from 0.0001 s⁻¹ up to 0.0006 s⁻¹, zone 3 = 0.0006 s⁻¹ and over

Q: GET /class?item= A15U U65G
Ans: zone 3

Q: GET /class?item= A33G A64G C70A
Ans: zone 1

Q: GET /class?item= A12U G37C
Ans: zone 2

Q: GET /class?item= A12G U47A
Ans: zone 3

Q: GET /class?item= G44A U55G
Ans: zone 2

Q: GET /class?item= A33U U55A
Ans: zone 2

Q: GET /class?item= U30A A33C
Ans: zone 1

Q: GET /class?item= A39U C58G
Ans: zone 2

Q: GET /class?item= G59A C70U
Ans: zone 2

Q: GET /class?item= C10G G59A
Ans: zone 1

Q: GET /class?item= A48C U55A
Ans: zone 2

Q: GET /class?item= A33U U54A
Ans: zone 2

Q: GET /class?item= A52G A64G
Ans: zone 3

Q: GET /class?item= C50A A52C
Ans: zone 1

Q: GET /class?item= A42G C58A
Ans: zone 2

Q: GET /class?item= G37A A64G
Ans: zone 3

Q: GET /class?item= A14G C70U
Ans: zone 3

Q: GET /class?item= U47C U65G
Ans: zone 3

Q: GET /class?item= C16U G44C
Ans: zone 1

Q: GET /class?item= C11U A53U U54C C58A
Ans: zone 1

Q: GET /class?item= G13U U47G
Ans: zone 2

Q: GET /class?item= A53U U57G
Ans: zone 2

Q: GET /class?item= U30C C58U C70U
Ans: zone 1

Q: GET /class?item= A48G U56G
Ans: zone 1

Q: GET /class?item= C10U G66U
Ans: zone 1

Q: GET /class?item= G59A C67A
Ans: zone 1

Q: GET /class?item= C11A A15G C16A G29U
Ans: zone 2

Q: GET /class?item= G41A U56G
Ans: zone 2

Q: GET /class?item= C11A U56A
Ans: zone 2

Q: GET /class?item= A33G U69A
Ans: zone 1

Q: GET /class?item= C16U G59U
Ans: zone 1

Q: GET /class?item= A12U C71U
Ans: zone 3

Q: GET /class?item= A33U U55C C61A
Ans: zone 1

Q: GET /class?item= A39C G66U
Ans: zone 3

Q: GET /class?item= U31A G40A
Ans: zone 3

Q: GET /class?item= A64G C71U
Ans: zone 3

Q: GET /class?item= G66C C70U
Ans: zone 3

Q: GET /class?item= G32A A53G
Ans: zone 3

Q: GET /class?item= U30A U49G
Ans: zone 2

Values compiled from the supplement of paper PMC7125110.
